target: human recombinant serotonin (5-Hydroxytryptamine) 5-HT2C receptor (Homo sapiens, UniProt P28335); construct: expressed in transfected cells; host or cells: Chinese hamster ovary (CHO-K1) cells; assay: Serotonin 5-HT2C radioligand binding assay; details: [3H]Mesulergine specific binding, read-out: Percent Inhibition of ligand binding, Serotonin (1 μM ligand concentration) 5-HT2C
Sequence (P28335 33-458): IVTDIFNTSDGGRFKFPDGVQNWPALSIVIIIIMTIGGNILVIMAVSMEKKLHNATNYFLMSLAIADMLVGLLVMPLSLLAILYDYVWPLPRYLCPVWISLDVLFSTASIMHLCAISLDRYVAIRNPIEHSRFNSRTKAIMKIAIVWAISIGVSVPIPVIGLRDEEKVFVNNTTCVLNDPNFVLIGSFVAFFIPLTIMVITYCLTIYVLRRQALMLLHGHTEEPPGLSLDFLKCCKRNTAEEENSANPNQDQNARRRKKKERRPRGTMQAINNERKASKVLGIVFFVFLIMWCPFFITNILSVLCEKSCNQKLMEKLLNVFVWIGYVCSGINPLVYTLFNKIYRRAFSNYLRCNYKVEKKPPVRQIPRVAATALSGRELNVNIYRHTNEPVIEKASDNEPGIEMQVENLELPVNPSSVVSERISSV
Below, each entry is listed alongside its reported inhibition at 1 µM.
Write the answer as a number in %, unit excluded.

Please review the entries below; each comes with its answer.
> print(dat)
                                   molecule  recorded.value
1  Cc1ccc2c(c1)c1c(n2CC(=O)N2CCC(C)CC2)CN2CCC1C2 (stereo not drawn)              15
2  Cc1ccc2c(c1)c1c(n2CCc2ccc(C(F)(F)F)nc2)CN2CCC1C2 (stereo not drawn)              10
3  Cc1ccc2c(c1)c1c(n2C(=O)Cc2ccc(Cl)cc2)CN2CCC1C2 (stereo not drawn)              89
4  Cc1ccc2c(c1)c1c(n2C#Cc2ccc(Cl)cc2)CN2CCC1C2 (stereo not drawn)              94
5  Cc1ccc2c(c1)c1c(n2CC(=O)c2ccc(F)cc2)CN2CCC1C2 (stereo not drawn)              83

Q. Quick one: inhibition at 1 µM of C/C(=C/n1c2c(c3cc(C)ccc31)C1CCN(C2)C1)c1ccccc1F (stereo not drawn) ?
A. 94

Q. Quick one: inhibition at 1 µM of Cc1ccc2c(c1)c1c(n2CC(O)c2ccccc2)CN2CCC1C2 (stereo not drawn) ?
A. 31

Q. Quick one: inhibition at 1 µM of Cc1ccc2c(c1)c1c(n2CC(C)(O)c2ccc(F)cc2)CN2CCC1C2 (stereo not drawn) ?
A. 57

Q. Quick one: inhibition at 1 µM of COc1ccc(/C(C)=C/n2c3c(c4cc(C)ccc42)C2CCN(C3)C2)cc1F (stereo not drawn) ?
A. 97

====

molecular target: human recombinant serotonin (5-Hydroxytryptamine) 5-HT2C receptor (Homo sapiens, UniProt P28335); construct: expressed in transfected cells; host or cells: Chinese hamster ovary (CHO-K1) cells; assay: Serotonin 5-HT2C radioligand binding assay; details: [3H]Mesulergine specific binding, read-out: Percent Inhibition of ligand binding, Serotonin (1 μM ligand concentration) 5-HT2C
Below, each entry is listed alongside its reported inhibition at 1 µM.
Write the answer as a number in %, unit excluded.

Please review the entries below; each comes with its answer.
> print(dat)
                                   molecule  recorded.value
1  Cc1ccc2c(c1)c1c(n2CCc2nc(-c3ccccc3)cs2)CN2CCC1C2 (centres unmarked)              23
2  C/C(=C\n1c2c(c3cc(C)ccc31)C1CCN(C2)C1)c1ccncc1 (centres unmarked)              58
3  Cc1ccc2c(c1)c1c(n2CC(=O)N(C)C)CN2CCC1C2 (centres unmarked)              -1
4  COc1ccc(C(O)Cn2c3c(c4cc(C)ccc42)C2CCN(C3)C2)cc1F (centres unmarked)              43

Attention now turns to another entry.
Q. Quick one: inhibition at 1 µM of C/C(=C\n1c2c(c3cc(C)ccc31)C1CCN(C2)C1)c1ccc(F)c(F)c1 (centres unmarked) ?
A. 94

====

biological target: human recombinant adrenergic α2A receptor (Homo sapiens, UniProt P08913); construct: expressed in transfected cells; host or cells: insect Sf9 cells; test: Adrenergic α2A radioligand binding assay; conditions: 0.1 μM; [3H]MK-912 specific binding; read-out: Percent Inhibition of ligand binding, Adrenergic (0.1 μM ligand conc.) α2A
Sequence (P08913 whole entry): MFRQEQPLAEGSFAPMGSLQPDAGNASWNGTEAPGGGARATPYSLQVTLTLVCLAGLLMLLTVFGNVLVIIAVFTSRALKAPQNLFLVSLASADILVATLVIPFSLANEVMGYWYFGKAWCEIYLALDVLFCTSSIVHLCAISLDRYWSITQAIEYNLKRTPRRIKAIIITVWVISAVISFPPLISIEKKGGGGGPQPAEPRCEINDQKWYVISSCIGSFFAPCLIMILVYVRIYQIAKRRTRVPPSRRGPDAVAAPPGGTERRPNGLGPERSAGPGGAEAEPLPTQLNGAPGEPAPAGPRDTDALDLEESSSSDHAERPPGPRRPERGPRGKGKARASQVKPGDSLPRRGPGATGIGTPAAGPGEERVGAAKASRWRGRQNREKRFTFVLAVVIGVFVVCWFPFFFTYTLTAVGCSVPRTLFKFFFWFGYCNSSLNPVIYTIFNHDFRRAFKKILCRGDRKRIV
attribute.measured: inhibition at 0.1 µM (%)
Write the answer as a number in %, unit excluded.

Please review the entries below; each comes with its answer.
> print(dat)
                                   compound  recorded.value
1  COc1ccc(/C(C)=C/n2c3c(c4cc(C)ccc42)C2CCN(C3)C2)cc1 (stereo not drawn) [Compound 45]               4
2  C/C(=C\n1c2c(c3cc(C)ccc31)C1CCN(C2)C1)c1ccccc1F (stereo not drawn) [Compound 38]               3

Q. Quick one: inhibition at 0.1 µM of Cc1ccc2c(c1)c1c(n2C(=O)Cc2ccc(Cl)cc2)CN2CCC1C2 (stereo not drawn) [Compound 36] ?
A. 24

Q. Quick one: inhibition at 0.1 µM of C/C(=C\n1c2c(c3cc(C)ccc31)C1CCN(C2)C1)c1ccncc1 (stereo not drawn) [Compound 44] ?
A. -5

Q. Quick one: inhibition at 0.1 µM of C/C(=C\n1c2c(c3cc(C)ccc31)C1CCN(C2)C1)c1ccc(Cl)cc1Cl (stereo not drawn) [Compound 33] ?
A. 13

Q. Quick one: inhibition at 0.1 µM of C/C(=C\n1c2c(c3cc(C)ccc31)C1CCN(C2)C1)c1ccc(Cl)cc1 (stereo not drawn) [Compound 32] ?
A. 45

====

molecular target: human recombinant adrenergic α2A receptor (Homo sapiens, UniProt P08913); construct: expressed in transfected cells; host or cells: insect Sf9 cells; test: Adrenergic α2A radioligand binding assay; details: 1 μM; [3H]MK-912 specific binding; read-out: Percent Inhibition of ligand binding, Adrenergic (1 μM ligand conc.) α2A
attribute.measured: inhibition at 1 µM (%)
Write the answer as a number in %, unit excluded.

> print(dat)
                                   compound  recorded.value
1  Cc1ccc2c(c1)c1c(n2CC(=O)N2CCC(C)CC2)CN2CCC1C2 (stereo not drawn)              -7
2  Cc1ccc2c(c1)c1c(n2CC(C)(O)c2ccc(Cl)cc2)CN2CCC1C2 (stereo not drawn)              28
3  Cc1ccc2c(c1)c1c(n2CC(=O)N2CCCCC2)CN2CCC1C2 (stereo not drawn)               9

Q. Quick one: inhibition at 1 µM of Cc1ccc2c(c1)c1c(n2CCc2nc(-c3ccccc3)cs2)CN2CCC1C2 (stereo not drawn) ?
A. -10

Q. Quick one: inhibition at 1 µM of Cc1ccc2c(c1)c1c(n2CC(C)(O)c2ccc(Cl)c(Cl)c2)CN2CCC1C2 (stereo not drawn) ?
A. 39

Q. Quick one: inhibition at 1 µM of Cc1ccc(/C=C/n2c3c(c4cc(C)ccc42)C2CCN(C3)C2)cc1 (stereo not drawn) ?
A. 38

Q. Quick one: inhibition at 1 µM of Cc1ccc2c(c1)c1c(n2CC(=O)c2ccc(Cl)cc2)CN2CCC1C2 (stereo not drawn) ?
A. 89

Q. Quick one: inhibition at 1 µM of Cc1ccc2c(c1)c1c(n2CC(=O)N2CCNCC2)CN2CCC1C2 (stereo not drawn) ?
A. 4

Q. Quick one: inhibition at 1 µM of Cc1ccc2c(c1)c1c(n2CC(=O)N(C)C)CN2CCC1C2 (stereo not drawn) ?
A. 5

====

target: human recombinant serotonin (5-Hydroxytryptamine) 5-HT2A receptor (Homo sapiens); construct: expressed in transfected cells; host or cells: Chinese hamster ovary (CHO-K1) cells; assay: Serotonin 5-HT2A radioligand binding assay; settings: [3H]Ketanserin specific binding, read-out: Percent Inhibition of ligand binding, Serotonin (1 μM ligand concentration) 5-HT2A
Sequence (P28223 whole entry): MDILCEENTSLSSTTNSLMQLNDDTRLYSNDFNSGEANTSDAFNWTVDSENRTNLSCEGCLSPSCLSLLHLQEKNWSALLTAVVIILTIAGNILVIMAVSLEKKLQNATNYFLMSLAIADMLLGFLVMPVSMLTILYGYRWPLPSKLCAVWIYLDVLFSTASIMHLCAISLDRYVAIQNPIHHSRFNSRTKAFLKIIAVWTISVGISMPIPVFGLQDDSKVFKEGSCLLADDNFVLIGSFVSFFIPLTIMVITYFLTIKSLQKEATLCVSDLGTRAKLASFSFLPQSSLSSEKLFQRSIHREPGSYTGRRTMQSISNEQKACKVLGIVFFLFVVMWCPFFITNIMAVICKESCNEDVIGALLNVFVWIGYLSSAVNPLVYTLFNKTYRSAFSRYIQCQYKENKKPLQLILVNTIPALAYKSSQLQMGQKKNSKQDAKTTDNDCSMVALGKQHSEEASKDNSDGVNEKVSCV
The label depends only on inhibition at 1 µM: T if it is at least 20%, F if it is smaller.

> print(dat)
                                   molecule  category.label
1  Cc1ccc2c(c1)c1c(n2CC(=O)N2CCNCC2)CN2CCC1C2 (centres unmarked) [Compound 24]               F
2  C/C(=C\n1c2c(c3cc(C)ccc31)C1CCN(C2)C1)c1ccccc1F (centres unmarked) [Compound 38]               T

Q. Does C/C(=C\n1c2c(c3cc(C)ccc31)C1CCN(C2)C1)c1ccc(F)c(F)c1 (centres unmarked) [Compound 39] have a reported inhibition at 1 µM of at least 20%?
A. T

Q. Does Cc1ccc2c(c1)c1c(n2CC(=O)N2CCOCC2)CN2CCC1C2 (centres unmarked) [Compound 26] have a reported inhibition at 1 µM of at least 20%?
A. F

Q. Does Cc1ccc2c(c1)c1c(n2CC(=O)c2ccccc2)CN2CCC1C2 (centres unmarked) [Compound 21] have a reported inhibition at 1 µM of at least 20%?
A. F

Q. Does Cc1ccc2c(c1)c1c(n2CCc2nc(-c3ccccc3)cs2)CN2CCC1C2 (centres unmarked) [Compound 19] have a reported inhibition at 1 µM of at least 20%?
A. F

Q. Does Cc1ccc2c(c1)c1c(n2CC(C)(O)c2ccc(F)c(Cl)c2)CN2CCC1C2 (centres unmarked) [Compound 18] have a reported inhibition at 1 µM of at least 20%?
A. T

====

molecular target: human recombinant adrenergic α2C receptor (Homo sapiens, UniProt P18825); construct: expressed in transfected cells; host or cells: insect Sf9 cells; assay: Adrenergic α2C radioligand binding assay; details: [3H]MK-912 specific binding, read-out: Percent Inhibition of ligand binding, Adrenergic (0.1 μM ligand conc.) α2C
Sequence (P18825 whole entry): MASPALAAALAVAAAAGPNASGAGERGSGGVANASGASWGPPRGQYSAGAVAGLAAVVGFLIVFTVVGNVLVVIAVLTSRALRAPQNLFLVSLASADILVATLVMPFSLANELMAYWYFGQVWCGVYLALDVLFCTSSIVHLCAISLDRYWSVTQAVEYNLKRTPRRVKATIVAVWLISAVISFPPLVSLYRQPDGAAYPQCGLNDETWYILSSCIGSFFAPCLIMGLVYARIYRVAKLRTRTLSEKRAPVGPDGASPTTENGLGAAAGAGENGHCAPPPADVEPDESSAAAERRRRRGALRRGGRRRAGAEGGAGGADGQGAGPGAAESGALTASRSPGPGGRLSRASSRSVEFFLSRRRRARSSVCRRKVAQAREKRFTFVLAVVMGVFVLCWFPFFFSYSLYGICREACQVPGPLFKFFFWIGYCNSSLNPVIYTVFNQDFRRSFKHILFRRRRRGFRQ
attribute.measured: inhibition at 0.1 µM (%)
Write the answer as a number in %, unit excluded.

Please review the entries below; each comes with its answer.
> print(dat)
                                   molecule                              assay.target  unit.descriptor  recorded.value
1  COc1ccc(/C(C)=C/n2c3c(c4cc(C)ccc42)C2CCN(C3)C2)cc1 (stereo not drawn)  human recombinant adrenergic α2C receptor (Homo sapiens, UniProt P18825)                %               3
2  C/C(=C\n1c2c(c3cc(C)ccc31)C1CCN(C2)C1)c1ccc(Cl)cc1 (stereo not drawn)  human recombinant adrenergic α2C receptor (Homo sapiens, UniProt P18825)                %              39
3  C/C(=C\n1c2c(c3cc(C)ccc31)C1CCN(C2)C1)c1ccc(Cl)cc1Cl (stereo not drawn)  human recombinant adrenergic α2C receptor (Homo sapiens, UniProt P18825)                %              16
4  C/C(=C\n1c2c(c3cc(C)ccc31)C1CCN(C2)C1)c1ccncc1 (stereo not drawn)  human recombinant adrenergic α2C receptor (Homo sapiens, UniProt P18825)                %               7
5  C/C(=C\n1c2c(c3cc(C)ccc31)C1CCN(C2)C1)c1ccccc1F (stereo not drawn)  human recombinant adrenergic α2C receptor (Homo sapiens, UniProt P18825)                %              13

Attention now turns to another entry.
Q. Quick one: inhibition at 0.1 µM of Cc1ccc2c(c1)c1c(n2C(=O)Cc2ccc(Cl)cc2)CN2CCC1C2 (stereo not drawn) ?
A. 24

Data provenance is patent US9271971B2.
